test: gradient 5% acetonitrile 3 min, to 50% in 2 min, to 85% in 15 min, held 3 min, 100 µL/min; conditions: column: Zorbax Extend-C18 2.1 x 50 mm; eluents: water / acetonitrile, 0.1% formic acid
So basically: RP-LC retention time at 700 s or higher? That is YES. Lower than 700 s? That is NO.

Compound	Assigned class
CCc1noc(-c2ccc(-n3ncc(C(=O)N4CCSCC4)c3C)nc2)n1	YES
O=C1OCC2=C1C(c1ccccc1)NC(=O)N2CC(=O)N1CCCCC1 (stereo not given)	NO
CCOC(=O)c1cc(C2CC2)nc2c1c(=O)n(Cc1cccc(C)c1)c(=O)n2C	YES
O=C(Cc1ccc(Cl)s1)Nc1nnc(-c2cc3ccccc3o2)o1	YES
CCOc1cc(C(=O)N2CCN(c3cc(-c4ccc(Cl)cc4)[nH]n3)CC2)cc(OCC)c1OCC	YES
Cn1ncc2c3ccccc3n(CC(=O)N3CCN(Cc4ccccc4)CC3)c2c1=O	NO
N#Cc1cccc(C(=O)N2CCN(c3cc(-c4ccccc4)[nH]n3)CC2)c1	YES

###

assay: gradient 5% acetonitrile 3 min, to 50% in 2 min, to 85% in 15 min, held 3 min, 100 µL/min; conditions: column: Zorbax Extend-C18 2.1 x 50 mm; eluents: water / acetonitrile, 0.1% formic acid
Reported endpoint: RP-LC retention time (s)

Compound	Reported endpoint	Result unit	Recorded result
O=C(NCCC1=CCCCC1)C1CCN(c2cnc(N3CCOCC3)nc2)CC1	RP-LC retention time	s	772
CN(C)C(=O)c1cn(C2CN(C(=O)c3ccc(C#N)cc3)C2)nn1	RP-LC retention time	s	624
CCCN1C(=O)C2CCC(=O)N2c2ccc(C(=O)NC(C)C)cc21 (centres undefined)	RP-LC retention time	s	669
CCN(CC)S(=O)(=O)c1ccc2c(c1)N(CC(=O)N1CCCCCC1)C(=O)C1CCCCN21 (centres undefined)	RP-LC retention time	s	996
Cc1nnc(N2CCCC(C(=O)NCCc3cccs3)C2)c2nn(-c3ccccc3)c(C)c12 (centres undefined)	RP-LC retention time	s	720
COc1ccc(Cl)c2c(=O)c3c([nH]c12)CCN(CC(=O)Nc1ccc2c(c1)OCCO2)C3	RP-LC retention time	s	610
Cc1nc(-c2ccc3c(c2)n(CC(=O)NC2CCC(C)CC2)c(=O)n3C(C)C)no1 (centres undefined)	RP-LC retention time	s	897
COc1ccc(-c2cc3c(=O)n(Cc4nc(-c5ccc(OC)cc5OC)oc4C)ccn3n2)cc1	RP-LC retention time	s	1020
CCn1cc(C)c(C(=O)O)c1CC(=O)N(C)c1ccc(C)c(C)c1	RP-LC retention time	s	1000

###

experiment: gradient 5% acetonitrile 3 min, to 50% in 2 min, to 85% in 15 min, held 3 min, 100 µL/min; conditions: column: Zorbax Extend-C18 2.1 x 50 mm; eluents: water / acetonitrile, 0.1% formic acid
RP-LC retention time listing for selected molecules.

Molecule	Result unit	RP-LC retention time
CC(=O)N1c2ccc(S(=O)(=O)N3CCCC3C(=O)Nc3nc4ccc(C)cc4s3)cc2CC1C (stereo not drawn)	s	935
CCCn1c(=O)c2sc(N3CCCC3)nc2n(CC(=O)NCCC2=CCCCC2)c1=O	s	997
O=C(c1ccccn1)N1CCc2cc(-c3csc(C4CC4)n3)ccc21	s	975
CN(C)C(=O)C1CN(C(=O)c2cccc(Br)c2)CC12CCOCC2 (stereo not drawn)	s	619
O=C(C1CC(=O)N(c2n[nH]c3ccccc23)C1)N1CCC(c2noc3cc(F)ccc23)CC1 (stereo not drawn)	s	766
Cc1cccc2c(=O)n(C3CCN(S(=O)(=O)c4ccc(F)cc4F)CC3)cnc12	s	904
CCC(C)N(CC(=O)N(Cc1ccco1)CC1CCCO1)C(=O)c1ccc(OC)cc1 (stereo not drawn)	s	808
O=C(O)C1CCN(c2nc3ccc(-c4cccs4)nc3s2)CC1	s	837
COC(=O)C1=C(NC(=O)COc2ccc(Cl)cc2Cl)CCS1	s	1110
CCOc1ccc(-n2c(CN3CCN(C(=O)NCCCOC)CC3)nc3cccnc32)cc1	s	609
CCn1nccc1-c1cccc(-c2noc(-c3ccc(OC)cc3C)n2)c1	s	1300
O=C(c1ccccc1[N+](=O)[O-])N1CCN(Cc2nc(-c3ccco3)cs2)CC1	s	682
COc1ccc(-c2noc(-c3nnn(Cc4nc(-c5ccccc5OC)oc4C)c3C)n2)cc1OC	s	1000
CCCCOc1ccc(CNC(=O)c2ccc3c(c2)N(C)C(=O)C2CCCCN32)cc1 (stereo not drawn)	s	843
O=C(CN1CCN(Cc2ccc(F)cc2)C(=O)C1=O)NCc1ccc2c(c1)OCO2	s	780
COc1ccc(CC(=O)Nc2ccc(-c3nc(Cn4nc(C)cc4C)c(C)o3)cc2)cc1	s	903
O=C(NC1CCN(C(=O)C2CC2)C1)c1ccc(F)cc1 (stereo not drawn)	s	666
Cc1noc2nc(CCC(=O)NCCCN3CCc4ccccc4C3)nc(N3CCC(C)CC3)c12	s	703
CNc1nccc(N2CCC(CC(=O)N3CCCCCC3)CC2)n1	s	539
Cc1ccc(NC(=O)Cn2nc3c(Oc4cccc(F)c4)nccn3c2=O)cc1	s	880
O=C(Nc1ccc(Br)cc1)N1CCC(N2CCN(Cc3ccccc3)C2=O)CC1	s	893
Cc1ccc(Nc2nc(C(=O)NCc3ccc(C)o3)nc3ccccc23)cc1	s	847
Cc1ccc(-c2ccc(-n3nc(C)c(S(=O)(=O)N4CCOCC4)c3C)nn2)cc1	s	972
COC(=O)c1cccc(C(=O)Nc2cccc(OC)c2)n1	s	817
Cc1ccccc1NC(=O)NCC1CCOCC1	s	658
CCn1cc(CN2CCC(C(=O)NC3CCCCC3)CC2)c2cc(OC)ccc21	s	688
O=C(COc1ccc(-c2nnc3n2CCCC3)cc1)N1CCc2ccccc21	s	790
Cc1ccc(CC(=O)N2CCC3(CC2)NC(=O)c2cc(C)ccc2N3C)cc1	s	852

###

Reported RP-LC retention time values follow for various molecules
assay: gradient 5% acetonitrile 3 min, to 50% in 2 min, to 85% in 15 min, held 3 min, 100 µL/min; conditions: column: Zorbax Extend-C18 2.1 x 50 mm; eluents: water / acetonitrile, 0.1% formic acid

Molecule	Result unit	RP-LC retention time
c1ccc(CNc2nc(NCc3ccccc3)c3ccccc3n2)cc1	s	796
COc1cc(NC(=O)C2CCN(C(=O)C3Sc4ccccc4NC3=O)CC2)cc(OC)c1 (centres undefined)	s	754
CNC(=O)c1cc(=O)[nH]c2ccc(F)cc12	s	584
COc1ccc(Cl)cc1NC(=O)NC1CCCCC1N1C(=O)CSC1=O (centres undefined)	s	870
O=C(Nc1nc(-c2ccc(Cl)cc2)cs1)c1cccc(-n2cnnc2)n1	s	865
Cc1cccc(-n2c(=O)c3sccc3n(Cc3nc(-c4ccc(C(F)(F)F)cc4)no3)c2=O)c1	s	1120
CCn1nccc1C(=O)NC1CCN(C2=NS(=O)(=O)C(c3ccc(C)cc3)=C2C)CC1	s	817
CC1(C(=O)NCc2ccc(Cl)cc2)CN(S(C)(=O)=O)CC(=O)N1Cc1ccccc1 (centres undefined)	s	858
CCCn1c(C)cnc1C1CN(S(=O)(=O)c2ccc(Cl)cc2)C1	s	678
CCC(C)Nc1nc(-c2ccc(OC)cc2)nc2ccccc12 (centres undefined)	s	800
COc1ccc(CNC(=O)C2(C)Oc3cccnc3N(C(C)C)C2=O)cc1OC (centres undefined)	s	836
CCc1cc(=O)n(CC(=O)Nc2cccc(C)c2)c(N)n1	s	600
Cc1cc(=O)n(CC(=O)Nc2ccc(N(C)C)cc2)c(-c2ccccc2)n1	s	639
COc1cccc(Oc2nccnc2N2CCC(C(=O)N3CCN(c4ccccn4)CC3)CC2)c1	s	658
Cc1nc2cccnc2n1-c1ccc(C(=O)NCCCN2CCCC2=O)cc1	s	580
COc1ccc(C2Cn3nnc(-c4nc(-c5ccccc5OC)no4)c3CO2)cc1 (centres undefined)	s	1010
CC1=C(c2ccccc2)S(=O)(=O)N=C1N1CCCN(C(=O)NC2CCCC2)CC1	s	778
CC(=O)Nc1ccc(CCc2nc3ccc(C(=O)NCc4ccco4)cc3[nH]2)cc1	s	606
Cc1cc2c(cc1S(=O)(=O)N1CCCC1C(=O)Nc1ccc3c(c1)OCO3)OCC(=O)N2 (centres undefined)	s	720
O=C(COc1ccc2ccccc2c1)NCC1CCN(c2ncccn2)CC1	s	762
COc1ncccc1CNC(=O)CCc1ccccc1	s	738
Cc1nc(Cn2cccc2C(=O)Nc2ccc(Cl)cc2F)no1	s	893
COc1ccc(CC(=O)N2CCC3(CC2)C(=O)N(C)c2ccccc23)cc1OC	s	752
Cc1c(Br)cncc1C(=O)O	s	620
CCN(CC)CCCNC(=O)c1nnc(-c2ccc(S(=O)(=O)N3CCOCC3)cc2)o1	s	600
CC(CNC(=O)c1cc2n(n1)CC(C)(C(=O)NC1CCCC1)N(C)C2=O)c1ccccc1 (centres undefined)	s	884
O=C(NCc1ccc(Cl)cc1)c1nc(N2CCOCC2)c2ccccc2n1	s	721
COCCNC(=O)C(=O)Nc1ccc(Br)cc1	s	795
Cn1nc(-c2nc(-c3ccc(F)cc3)no2)c2c1CCN(C(=O)C1CCCO1)C2 (centres undefined)	s	789
